System: primary mouse B-cells
Test: Primary B-cell activation (CD86+ FACS) in response to LPS
Format: cell-based
Conditions: Mus musculus, B-cell, full dose response
assayEndpoint: pIC50
Units for pIC50: none; it is -log10 of a concentration expressed in mol/L.

Enquiry: Consider the molecule shown here: `C#CCNC(=O)c1cc(NC(=O)C=C)cc(-c2n[nH]c3ccccc23)c1` What is its recorded pIC50?
Return: 5.28

---

Assay: Metabolic stability in dog liver microsomes
Type: in vitro ADME
Details: dog, liver microsomes
assayEndpoint: half-life

Enquiry: I would be grateful if you could share the reported half-life for `C=CC(=O)Nc1cccc(-c2n[nH]c3cc(Cl)ccc23)c1` .
Return: < 5 min

Enquiry: GET /values?readout=half-life&item= `C=CC(=O)Nc1cc(C#N)cc(-c2n[nH]c3ccccc23)c1`
Return: < 5 min

Enquiry: I have this molecule here, `C=CC(=O)Nc1cccc(-c2n[nH]c3c2CC(C)(C)CC3)c1` , and I need its recorded half-life.
Return: 6 min

Enquiry: Return reported half-life; argument: `C=CC(=O)Nc1cccc(-c2n[nH]c3c2COCC3)c1`
Return: 9 min

Enquiry: half-life for `C=CC(=O)Nc1cccc(-c2n[nH]c3ccccc23)c1` ?
Return: < 5 min

Enquiry: Which value of half-life has been reported for `C=CC(=O)Nc1cccc(-c2n[nH]c3c2CCCC3)c1` in the records?
Return: < 5 min

Enquiry: For the molecule `C=CC(=O)Nc1cccc(-c2n[nH]c3cc(C)ccc23)c1` , what half-life is on record?
Return: < 5 min

Enquiry: Recorded half-life of `C=CC(=O)Nc1cccc(-c2n[nH]c3cc(Br)ccc23)c1` , please.
Return: < 5 min

Enquiry: What value of half-life has been reported for the following molecule? `C=CC(=O)Nc1cc(-c2n[nH]c3ccccc23)ccc1C`
Return: < 5 min

Enquiry: Endpoint output: half-life of COc1cc(OC)cc(C(C#N)(CCCN(C)CCc2ccc(OC)c(OC)c2)C(C)C)c1 (stereo not shown) [REF1250, reference compound] . Value?
Return: 12 min

---

Assay: Metabolic stability in rat liver microsomes
Type: in vitro ADME
Conditions: rat, liver microsomes
assayEndpoint: half-life

Enquiry: Any idea what half-life was measured for C=CC(=O)Nc1cccc(-c2n[nH]c3c2CCCC3)c1 [GO4] ?
Return: < 5 min

Enquiry: Consider the compound shown here: COc1cc(OC)cc(C(C#N)(CCCN(C)CCc2ccc(OC)c(OC)c2)C(C)C)c1 (centres unmarked) [REF1250, reference compound] What is its recorded half-life?
Return: 8 min

Enquiry: Data request, read-out half-life, for C=CC(=O)Nc1cc(-c2n[nH]c3ccccc23)ccc1C [GO72]
Return: < 5 min

Enquiry: Please give the measured half-life for this compound: C=CC(=O)Nc1cccc(-c2n[nH]c3ccccc23)c1 [GO32]
Return: < 5 min

Enquiry: Using the record for C=CC(=O)Nc1cc(C#N)cc(-c2n[nH]c3ccccc23)c1 [GO73] , report its half-life.
Return: < 5 min

---

Experiment: Metabolic stability in monkey liver microsomes
Format: in vitro ADME
assayEndpoint: % remaining @ 40 min (%)
Field format: number, assumed %, no unit text.

Enquiry: Need % remaining @ 40 min of COc1cc(OC)cc(C(C#N)(CCCN(C)CCc2ccc(OC)c(OC)c2)C(C)C)c1 (stereo not drawn) [REF1250, reference compound] , thanks.
Return: 0

Enquiry: Report % remaining @ 40 min for C=CC(=O)Nc1cc(C(=O)O)cc(-c2n[nH]c3ccccc23)c1 [PCM476] please.
Return: 100

Enquiry: Quick one: % remaining @ 40 min of C=CC(=O)Nc1cc(C#N)cc(-c2n[nH]c3ccccc23)c1 [GO73] ?
Return: 0

Enquiry: Query (molecule): C=CC(=O)Nc1cccc(-c2n[nH]c3cc(C)ccc23)c1 [GO80] ; field requested: % remaining @ 40 min
Return: 0

Enquiry: For the molecule C=CC(=O)Nc1cc(C#N)cc(-c2n[nH]c3cc(C)ccc23)c1 [GO108] , what % remaining @ 40 min is on record?
Return: 0

Enquiry: Reported % remaining @ 40 min, molecule C=CC(=O)Nc1cccc(-c2n[nH]c3cc(Br)ccc23)c1 [GO98] : ____
Return: 0

Enquiry: Which % remaining @ 40 min value is on record for C=CC(=O)Nc1cc(C(=O)NC)cc(-c2n[nH]c3ccccc23)c1 [PCM487] ?
Return: 41

Enquiry: What value of % remaining @ 40 min has been reported for the following molecule? C=CC(=O)Nc1cccc(-c2n[nH]c3c2CCCC3)c1 [GO4]
Return: 0

Enquiry: Entry under review: C=CC(=O)Nc1cccc(-c2n[nH]c3ccccc23)c1 [GO32] . Reported % remaining @ 40 min?
Return: 0

Enquiry: Item under review: C=CC(=O)Nc1cccc(-c2n[nH]c3cc(OC)ccc23)c1 [GO83] . Reported % remaining @ 40 min?
Return: 0

Enquiry: So what's the measured % remaining @ 40 min for this one? C=CC(=O)Nc1cccc(-c2n[nH]c3c(F)cccc23)c1 [GO88]
Return: 0

Enquiry: Param item = C=CC(=O)Nc1cc(-c2n[nH]c3ccccc23)ccc1C [GO72] ; retrieve measured % remaining @ 40 min.
Return: 0
